target: K262R (2B6*4) (Homo sapiens, UniProt P20813, K262R); test: Spectral binding; settings: difference spectra, 1 μM P450
measurement-name: ΔAmax (K262R)
No unit in the answer, only the number.

Enquiry: In one line, give reported ΔAmax (K262R) of the entry `COC(=O)[C@H](c1ccccc1Cl)N1CCc2sccc2C1` .
Return: 0.030

Enquiry: In one line, give reported ΔAmax (K262R) of the entry CCC(C)n1ncn(-c2ccc(N3CCN(c4ccc(OCC5COC(Cn6cncn6)(c6ccc(Cl)cc6Cl)O5)cc4)CC3)cc2)c1=O (stereo not shown) .
Return: 0.021

Enquiry: In one line, give reported ΔAmax (K262R) of the entry `CN[C@H]1CC[C@@H](c2ccc(Cl)c(Cl)c2)c2ccccc21` .
Return: 0.02

Enquiry: In one line, give reported ΔAmax (K262R) of the entry `Clc1ccccc1CN1CCc2sccc2C1` .
Return: 0.025

----------
Each entry below carries its reported pKd.
Target: UniProt P20813
Sequence (P20813 with tags, fused parts or gaps limits assumed): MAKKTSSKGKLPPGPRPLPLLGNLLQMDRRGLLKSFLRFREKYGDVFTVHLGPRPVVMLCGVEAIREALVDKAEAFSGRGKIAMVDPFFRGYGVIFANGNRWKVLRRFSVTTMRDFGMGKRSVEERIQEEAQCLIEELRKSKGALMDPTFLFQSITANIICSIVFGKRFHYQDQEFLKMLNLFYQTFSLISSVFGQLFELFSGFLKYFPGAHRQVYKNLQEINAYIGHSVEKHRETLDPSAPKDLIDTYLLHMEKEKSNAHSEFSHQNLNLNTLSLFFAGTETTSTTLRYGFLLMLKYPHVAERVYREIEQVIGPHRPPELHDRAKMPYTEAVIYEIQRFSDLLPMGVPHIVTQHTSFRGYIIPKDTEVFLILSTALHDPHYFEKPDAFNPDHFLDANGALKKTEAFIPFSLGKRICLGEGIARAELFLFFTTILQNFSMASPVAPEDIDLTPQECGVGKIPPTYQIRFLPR
In plain terms, pKd is the concentration in mol/L turned into minus its base-10 logarithm.

Below: 2 compounds and their reported pKd.
[
  {
    "compound": "CN[C@H]1CC[C@@H](c2ccc(Cl)c(Cl)c2)c2ccccc21 [Sertraline, sertraline]",
    "pKd": 6.29
  },
  {
    "compound": "COC(=O)[C@H](c1ccccc1Cl)N1CCc2sccc2C1 [Clopidogrel, clopidogrel]",
    "pKd": 6.80
  }
]

Please find the next compound below.
Enquiry: In one line, give reported pKd of the entry CCC(C)n1ncn(-c2ccc(N3CCN(c4ccc(OCC5COC(Cn6cncn6)(c6ccc(Cl)cc6Cl)O5)cc4)CC3)cc2)c1=O (stereo not drawn) [Itraconazole, itraconazole] .
Return: 7.15

----------
Target: K262R (2B6*4) (Homo sapiens, UniProt P20813, K262R)
Sequence (P20813 with tags, fused parts or gaps K262R limits assumed): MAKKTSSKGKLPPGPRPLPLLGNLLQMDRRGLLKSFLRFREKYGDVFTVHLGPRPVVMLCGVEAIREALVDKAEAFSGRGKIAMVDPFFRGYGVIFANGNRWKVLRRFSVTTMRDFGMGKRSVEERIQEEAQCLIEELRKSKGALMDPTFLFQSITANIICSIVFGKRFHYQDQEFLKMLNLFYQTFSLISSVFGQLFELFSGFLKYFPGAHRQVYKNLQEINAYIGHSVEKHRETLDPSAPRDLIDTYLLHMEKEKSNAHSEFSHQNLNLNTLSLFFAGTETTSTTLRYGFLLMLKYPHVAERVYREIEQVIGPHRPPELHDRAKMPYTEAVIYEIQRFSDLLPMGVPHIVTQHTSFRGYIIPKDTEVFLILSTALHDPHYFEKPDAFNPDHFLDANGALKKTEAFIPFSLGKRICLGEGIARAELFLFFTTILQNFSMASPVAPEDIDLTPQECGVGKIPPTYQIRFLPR
Experiment: Spectral binding
measurement-name: pKd
In plain terms, pKd is the concentration in mol/L turned into minus its base-10 logarithm.

Below: 2 compounds and their reported pKd.
[
  {
    "compound": "CN[C@H]1CC[C@@H](c2ccc(Cl)c(Cl)c2)c2ccccc21 [Sertraline, sertraline]",
    "target-under-test": "K262R (2B6*4) (Homo sapiens, UniProt P20813, K262R)",
    "recorded-result": 5.69
  },
  {
    "compound": "CCC(C)n1ncn(-c2ccc(N3CCN(c4ccc(OCC5COC(Cn6cncn6)(c6ccc(Cl)cc6Cl)O5)cc4)CC3)cc2)c1=O (stereo not drawn) [Itraconazole, itraconazole]",
    "target-under-test": "K262R (2B6*4) (Homo sapiens, UniProt P20813, K262R)",
    "recorded-result": 5.76
  }
]

Please find the next compound below.
Enquiry: In one line, give reported pKd of the entry COC(=O)[C@H](c1ccccc1Cl)N1CCc2sccc2C1 [Clopidogrel, clopidogrel] .
Return: 6.48

----------
target: CYP2B6 Q172H/K262R (2B6*6) (Homo sapiens, UniProt P20813, K262R/Q172H); assay: 7-MFC O-deethylation inhibition in standard reconstitution system; settings: human, pH 7.4
measurement-name: Km at 5 min
The answer should read as a number with its unit following.

Enquiry: In one line, give reported Km at 5 min of the entry COc1ccc2c(C(F)(F)F)cc(=O)oc2c1 [7-MFC, 7-Methoxy-4-(trifluoromethyl) coumarin] .
Return: 49 µM

----------
Target: CYP2B6dH (Homo sapiens, UniProt P20813)
Sequence (P20813 with tags, fused parts or gaps limits assumed): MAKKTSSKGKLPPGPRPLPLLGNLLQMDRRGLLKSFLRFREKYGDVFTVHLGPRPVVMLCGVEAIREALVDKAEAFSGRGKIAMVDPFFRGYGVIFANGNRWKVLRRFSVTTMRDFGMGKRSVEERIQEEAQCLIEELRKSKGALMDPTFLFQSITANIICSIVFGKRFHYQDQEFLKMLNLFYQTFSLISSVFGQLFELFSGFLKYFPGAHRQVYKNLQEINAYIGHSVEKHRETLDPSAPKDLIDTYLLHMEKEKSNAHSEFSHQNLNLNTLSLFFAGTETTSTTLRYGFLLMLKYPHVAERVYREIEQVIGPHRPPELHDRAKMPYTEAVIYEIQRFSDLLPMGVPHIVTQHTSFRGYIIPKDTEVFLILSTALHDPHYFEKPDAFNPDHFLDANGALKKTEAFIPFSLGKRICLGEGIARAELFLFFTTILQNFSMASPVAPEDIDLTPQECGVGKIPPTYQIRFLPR
Assay: Spectral binding
Settings: CYP2B6dH and K262R; peak ~388 nm, trough ~420 nm

[
  {
    "compound": "CCC(C)n1ncn(-c2ccc(N3CCN(c4ccc(OCC5COC(Cn6cncn6)(c6ccc(Cl)cc6Cl)O5)cc4)CC3)cc2)c1=O (stereo not shown) [Itraconazole, itraconazole]",
    "Type of difference spectrum induced": "type I"
  },
  {
    "compound": "CN[C@H]1CC[C@@H](c2ccc(Cl)c(Cl)c2)c2ccccc21 [Sertraline, sertraline]",
    "Type of difference spectrum induced": "type I"
  },
  {
    "compound": "COC(=O)[C@H](c1ccccc1Cl)N1CCc2sccc2C1 [Clopidogrel, clopidogrel]",
    "Type of difference spectrum induced": "type I"
  },
  {
    "compound": "Clc1ccccc1CN1CCc2sccc2C1 [Ticlopidine, ticlopidine]",
    "Type of difference spectrum induced": "type I"
  }
]

----------
target: CYP2B6 K262R (2B6*4) (Homo sapiens, UniProt P20813, K262R); experiment: 7-MFC O-deethylation inhibition in standard reconstitution system; conditions: human, pH 7.4
measurement-name: Km at 5 min (µM)
State the answer as a number, implicitly in µM.

Enquiry: In one line, give reported Km at 5 min of the entry `COc1ccc2c(C(F)(F)F)cc(=O)oc2c1` .
Return: 5

----------
Molecular target: K262R (2B6*4) (Homo sapiens, UniProt P20813, K262R)
Sequence (P20813 with tags, fused parts or gaps K262R limits assumed): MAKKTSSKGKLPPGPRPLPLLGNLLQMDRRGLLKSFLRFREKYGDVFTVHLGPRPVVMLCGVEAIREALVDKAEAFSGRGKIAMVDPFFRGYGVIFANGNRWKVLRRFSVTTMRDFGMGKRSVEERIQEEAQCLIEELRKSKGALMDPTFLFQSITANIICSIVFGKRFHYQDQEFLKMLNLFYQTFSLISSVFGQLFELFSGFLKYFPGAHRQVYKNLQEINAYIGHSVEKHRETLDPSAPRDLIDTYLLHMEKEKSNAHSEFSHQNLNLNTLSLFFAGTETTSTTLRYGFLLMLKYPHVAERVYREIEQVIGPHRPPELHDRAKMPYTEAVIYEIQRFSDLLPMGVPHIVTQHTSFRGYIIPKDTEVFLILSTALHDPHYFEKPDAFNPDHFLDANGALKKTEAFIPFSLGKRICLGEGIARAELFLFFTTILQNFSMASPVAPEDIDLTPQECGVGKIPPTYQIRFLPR
Assay: Spectral binding
Settings: spectral binding

[
  {
    "compound": "COC(=O)[C@H](c1ccccc1Cl)N1CCc2sccc2C1",
    "target-under-test": "K262R (2B6*4) (Homo sapiens, UniProt P20813, K262R)",
    "ΔAmax, K262R compared with wild-type": "similar"
  },
  {
    "compound": "CN[C@H]1CC[C@@H](c2ccc(Cl)c(Cl)c2)c2ccccc21",
    "target-under-test": "K262R (2B6*4) (Homo sapiens, UniProt P20813, K262R)",
    "ΔAmax, K262R compared with wild-type": "3 fold"
  },
  {
    "compound": "Clc1ccccc1CN1CCc2sccc2C1",
    "target-under-test": "K262R (2B6*4) (Homo sapiens, UniProt P20813, K262R)",
    "ΔAmax, K262R compared with wild-type": "similar"
  },
  {
    "compound": "CCC(C)n1ncn(-c2ccc(N3CCN(c4ccc(OCC5COC(Cn6cncn6)(c6ccc(Cl)cc6Cl)O5)cc4)CC3)cc2)c1=O (stereo not shown)",
    "target-under-test": "K262R (2B6*4) (Homo sapiens, UniProt P20813, K262R)",
    "ΔAmax, K262R compared with wild-type": "similar"
  }
]
